tested_system: GMPPNP-loaded H-Ras or GTP-loaded K-Ras
assay_remarks: FP competition, displacement of probe R4007 from Ras
*1 amine or outer side, *2 acyl side, *3 side chain or, on linkers, in order; H or OH if unused. Bridges are numbered along the chain shown (N, C = ends). [ ]: non-standard residue; d: D form. Trp(7-aza) = N[C@@H](Cc1c[nH]c2ncccc12)C(=O)O; NMePhe(4-F) = CN[C@@H](Cc1ccc(F)cc1)C(=O)O; mXylylene = c1cc(C[*:1])cc(C[*:2])c1; Phg = N[C@H](C(=O)O)c1ccccc1; Tle = CC(C)(C)[C@H](N)C(=O)O; NMeS = CN[C@@H](CO)C(=O)O; NMeA = CN[C@@H](C)C(=O)O; Nva = CCC[C@H](N)C(=O)O; Sar = CNCC(=O)O
measured_metric: IC50 (nM)
I only need the number, in nM, no unit after it.

[[record]]
binder = "Ac-[Nva]CY[Tle]KH[NMeA][Phg][Trp(7-aza)]Y[NMePhe(4-F)][NMeS]C-NH2 (linker 2-13 via mXylylene; SMILES CCC[C@H](NC(C)=O)C(=O)N[C@H]1CSCc2cccc(c2)CSC[C@@H](C(N)=O)NC(=O)[C@H](CO)N(C)C(=O)[C@H](Cc2ccc(F)cc2)N(C)C(=O)[C@H](Cc2ccc(O)cc2)NC(=O)[C@H](Cc2c[nH]c3ncccc23)NC(=O)[C@H](c2ccccc2)NC(=O)[C@H](C)N(C)C(=O)[C@H](Cc2c[nH]cn2)NC(=O)[C@H](CCCCN)NC(=O)[C@H](C(C)(C)C)NC(=O)[C@H](Cc2ccc(O)cc2)NC1=O) [R4118]"
measured_metric = "IC50"
display_unit = "nM"
test_value = 51.5


// next entry
Exercise: # input binder: Ac-CY[Tle]KH[NMeA][Phg][Trp(7-aza)]Y[NMePhe(4-F)][Sar]C-NH2 (linker 1-12 via mXylylene; SMILES CC(=O)N[C@H]1CSCc2cccc(c2)CSC[C@@H](C(N)=O)NC(=O)CN(C)C(=O)[C@H](Cc2ccc(F)cc2)N(C)C(=O)[C@H](Cc2ccc(O)cc2)NC(=O)[C@H](Cc2c[nH]c3ncccc23)NC(=O)[C@H](c2ccccc2)NC(=O)[C@H](C)N(C)C(=O)[C@H](Cc2c[nH]cn2)NC(=O)[C@H](CCCCN)NC(=O)[C@H](C(C)(C)C)NC(=O)[C@H](Cc2ccc(O)cc2)NC1=O) [R4112] ; wanted: its IC50
Key: 21.4
